- ASSAY: gradient 5% acetonitrile 3 min, to 50% in 2 min, to 85% in 15 min, held 3 min, 100 µL/min
- MEASUREMENT CONTEXT: column: Zorbax Extend-C18 2.1 x 50 mm; eluents: water / acetonitrile, 0.1% formic acid
Each record here notes measured RP-LC retention time.
A number alone suffices; assume s.

COc1cccc(CNC(=O)c2ccc3c(c2)N(C)C(=O)C2CCCCN32)c1 (centres undefined) :: 842

# molecule CCC(CC)COC(=O)c1[nH]c2c(c1C)C(=O)CC(c1ccc(OC)c(OC)c1)C2 (centres undefined) ; its RP-LC retention time = 1140

Input "O=C(Nc1ccc(F)c(F)c1)C1CCN(c2nccnc2Sc2ccccc2)CC1" . Output RP-LC retention time: 1110

Kindly note the recorded RP-LC retention time for Cc1cc(C)n(Cc2nc(-c3ccc(NC(=O)C4CCCO4)cc3)oc2C)n1 (centres undefined) , which is 795

Recorded RP-LC retention time (molecule O=C(c1ccc(Cl)cc1)N1CCC(n2c(-c3ccoc3)nc3cccnc32)C1 (centres undefined) ): 782

response.value for "CCc1ccc(-c2cc(C)no2)cc1S(=O)(=O)N1CCN(c2ccccn2)CC1" (field: RP-LC retention time) = 757

Form field RP-LC retention time, entry Fc1ccc(Nc2nc(NCC3CCCO3)nc3[nH]ncc23)cc1 (centres undefined) : 578

Sample O=C(CNS(=O)(=O)c1ccc(F)cc1)N1CCCC1c1nc(-c2ccc(Cl)cc2)no1 (centres undefined) ; RP-LC retention time observed: 990

In plain terms, "CCn1cnc(S(=O)(=O)N2CCC(C(=O)NCCc3ccccc3)CC2)c1" has a documented RP-LC retention time of 697

Entry under test: "COc1ccccc1CNC(=O)C1CCN(c2ccc(SCc3ccccc3)nn2)CC1" . Its RP-LC retention time was 778

Entry Cc1ccc(N2CCC(NC(=O)c3cccs3)C2=O)cc1C (centres undefined) ; RP-LC retention time = 827

So for "O=S(=O)(c1cccnc1)N1CC(c2nc(CCOCc3ccccc3)no2)C1" , the logged RP-LC retention time turned out to be 835

So, CCOC(=O)c1oc2ccccc2c1NC(=O)C1CCCN1S(C)(=O)=O (centres undefined) ? Its RP-LC retention time was 796

Item: CC1(C(=O)Oc2ccc(Cl)cc2)Cc2ccccc2C(=O)O1 (centres undefined) | RP-LC retention time: 942

====

RP-LC retention time overview
- ASSAY: gradient 5% acetonitrile 3 min, to 50% in 2 min, to 85% in 15 min, held 3 min, 100 µL/min
- MEASUREMENT CONTEXT: column: Zorbax Extend-C18 2.1 x 50 mm; eluents: water / acetonitrile, 0.1% formic acid
The reply should contain only the number, in s.

O=C(NCCc1ccncc1)C1CN(S(=O)(=O)c2ccccc2)CC12CCCCC2 (stereo not given) :: 641
Cc1[nH]c(C(=O)N2CCCC(C(=O)NCc3ccc(Cl)cc3)C2)c(C)c1C(=O)OC(C)C (stereo not given) :: 610
NC(=O)c1cn(Cc2c(F)cccc2F)nn1 :: 684
O=C(Nc1ccccc1)c1n[nH]c2c1CCCCCC2 :: 957
COC(=O)c1nc(NC(=O)Cn2nc3c(cc2=O)CCCC3)sc1-c1ccccc1 :: 827

# compound "O=C(CN1C(=O)CCc2cc(Br)ccc21)Nc1ccccc1" ; its RP-LC retention time = 889

The compound identified as "Cc1nnc(NC(=O)c2ccc(OCc3nc(-c4ccco4)cs3)cc2)s1" registered its RP-LC retention time at 815

So for "COc1ccc(Br)cc1S(=O)(=O)NCCCn1ccnc1" , the logged RP-LC retention time turned out to be 568

Sure, the documented RP-LC retention time for "Fc1cccc(-c2nc(-c3ccc(-n4cccn4)nc3)no2)c1" is 1220

Reported RP-LC retention time for "O=C1CCCc2cc(S(=O)(=O)N3CCC(C(=O)NCCc4ccc(Cl)cc4)CC3)ccc2N1" was 776
